target: Galactokinase (Homo sapiens) (UniProt P51570)
Sequence (P51570 whole entry, looked up): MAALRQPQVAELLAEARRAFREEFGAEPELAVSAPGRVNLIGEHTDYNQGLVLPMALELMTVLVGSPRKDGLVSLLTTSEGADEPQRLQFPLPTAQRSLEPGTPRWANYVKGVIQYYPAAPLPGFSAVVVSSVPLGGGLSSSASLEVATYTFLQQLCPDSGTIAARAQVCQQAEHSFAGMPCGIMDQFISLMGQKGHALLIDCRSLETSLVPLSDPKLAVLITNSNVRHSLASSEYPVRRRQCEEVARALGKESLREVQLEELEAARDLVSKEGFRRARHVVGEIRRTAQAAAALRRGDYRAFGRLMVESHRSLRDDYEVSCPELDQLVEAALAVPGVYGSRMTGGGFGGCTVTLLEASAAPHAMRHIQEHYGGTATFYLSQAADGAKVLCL
experimental_protocol: qHTS Validation Assay for Inhibitors of Human Galactokinase (GALK) (AID 493189)
details: purified human GALK enzyme activity, qHTS 7-point titration; series mostly up to 57.5 µM
From the text: NIH Molecular Libraries Probe Production Centers Network [MLPCN] NIH Chemical Genomics Center [NCGC] Assay Submitter (PI): Kent Lai (University of Utah School of Medicine, 50 N Mario Capecchi Drive, Salt Lake City, UT 84132) Inherited deficiency of galactose-1-phosphate uridyltransferase (GALT) can result in a potentially lethal disorder called Classic Galactosemia (OMIM 230400). […]
Activity calls are given as the source filed them. Calls come from the whole dose curve; as a rule, active = well fitted curve in the direction sought with a large enough effect; inconclusive = small, poorly fitted or top-dose-only effect, or another doubt; inactive = no such curve, though single readings can be large or run the other way.
metric_name: outcome

Field: example entries. Status: answers known.
Q. State the recorded outcome for this entry: CCN1CCCC1CNC(=O)c1cc(S(N)(=O)=O)ccc1OC (stereo not drawn)
A. inactive

Q. For CCCCS(=N)(=O)CCC(N)C(=O)O (stereo not drawn) , what is its reported outcome?
A. inactive

Q. Fill blank: measured outcome of the compound `Cc1ccc(S(=O)(=O)N[C@@H](Cc2ccccc2)C(=O)CCl)cc1` is ____.
A. inactive

Q. Value lookup for outcome; key = CC(C)NCC(O)c1ccc(NS(C)(=O)=O)cc1 (stereo not drawn)
A. inactive

Q. Which outcome value is on record for `OCc1ccc(-c2nn(Cc3ccccc3)c3ccccc23)o1` ?
A. inactive

Q. Fill in: outcome of Nc1nc(N)c2nc(CNc3ccc(C(=O)NC(CCC(=O)O)C(=O)O)cc3)cnc2n1 (stereo not drawn) is ___
A. inactive

Q. Would you kindly share the measured outcome for `NC(=O)c1cccc(N)c1` ?
A. inactive

Continuing:
Q. Sample O=C(O)C1CCCN(CCC=C(c2ccccc2)c2ccccc2)C1 (stereo not drawn) — what was its outcome?
A. inactive
